A collection of molecules and their measured Activity
Biological target: Prostaglandin G/H synthase 1 (Ovis aries) (UniProt P05979)
Sequence (whole entry): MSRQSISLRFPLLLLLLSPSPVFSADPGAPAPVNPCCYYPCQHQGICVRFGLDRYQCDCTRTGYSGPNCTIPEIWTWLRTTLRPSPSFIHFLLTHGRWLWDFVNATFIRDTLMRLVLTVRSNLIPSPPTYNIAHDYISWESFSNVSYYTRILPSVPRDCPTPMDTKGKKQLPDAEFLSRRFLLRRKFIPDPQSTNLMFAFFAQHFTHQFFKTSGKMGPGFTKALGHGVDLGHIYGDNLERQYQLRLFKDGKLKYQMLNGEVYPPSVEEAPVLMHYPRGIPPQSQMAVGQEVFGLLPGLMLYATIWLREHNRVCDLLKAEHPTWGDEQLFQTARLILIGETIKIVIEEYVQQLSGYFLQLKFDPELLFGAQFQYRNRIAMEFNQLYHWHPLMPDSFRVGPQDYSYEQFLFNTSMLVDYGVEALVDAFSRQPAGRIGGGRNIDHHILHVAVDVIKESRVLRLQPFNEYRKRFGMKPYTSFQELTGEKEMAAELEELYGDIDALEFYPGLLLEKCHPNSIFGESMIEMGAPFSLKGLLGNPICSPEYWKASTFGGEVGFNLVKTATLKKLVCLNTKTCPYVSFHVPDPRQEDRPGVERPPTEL
Test: Inhibition of ovine COX-1 using arachidonic acid as substrate assessed as residual activity at 10 uM preincubated for 5 mins followed by substrate addition measured after 5 mins by HPLC analysis relative to control
Kindly answer with a numeric value in %, unit omitted.

Consider the worked cases shown below.
molecule: CC(C)=CCC[C@H](C(=O)O)[C@@H]1CC[C@]2(C)C3=C(CC[C@@]12C)[C@@]1(C)CC[C@@H](O)C(C)(C)[C@@H]1CC3
Activity [%]: 81.9
//
molecule: C=C(C)[C@@H]1CC[C@]2(CO)CC[C@]3(C)[C@H](CC[C@@H]4[C@@]5(C)CC[C@H](OC(C)=O)[C@](C)(C(=O)O)[C@@H]5CC[C@]43C)[C@@H]12
Activity [%]: 90.7
//
molecule: CC(=O)O[C@@H]1CC[C@]2(C)C3=C(CC[C@H]2C1(C)C)[C@@]1(C)CC[C@@H]([C@H](CCC=C(C)C)C(=O)O)[C@]1(C)CC3
Activity [%]: 63.2

Kindly review the next molecule as well.
Which Activity reading was recorded for the molecule CC(C)=CCC[C@H](C(=O)O)[C@@H]1CC[C@]2(C)C3=CC[C@H]4C(C)(C)[C@H](O)CC[C@]4(C)[C@H]3CC[C@@]12C ? 69.6

###

Measured pIC50 of individual entries
Molecular target: Prostaglandin E synthase (Homo sapiens)
Sequence (O14684 whole entry): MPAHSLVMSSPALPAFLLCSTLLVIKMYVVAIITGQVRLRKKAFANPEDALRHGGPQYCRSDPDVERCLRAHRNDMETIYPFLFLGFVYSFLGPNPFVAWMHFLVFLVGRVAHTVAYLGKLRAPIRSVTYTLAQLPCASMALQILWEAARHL
Experiment: Inhibition of microsomal PGES1 isolated from IL-1beta-stimulated human A549 cells preincubated for 15 mins followed by substrate addition measured after 1 min by RP-HPLC analysis
As a rule, pIC50 stands for the negative log10 of the concentration, concentration in M.

Some molecules with recorded pIC50:
molecule: CC(=O)O[C@@H]1CC[C@]2(C)C3=C(CC[C@H]2C1(C)C)[C@@]1(C)CC[C@@H]([C@H](CCC=C(C)C)C(=O)O)[C@]1(C)CC3
pIC50: 6.40
//
molecule: CC(C)=CCC[C@H](C(=O)O)[C@@H]1CC[C@]2(C)C3=C(CC[C@@]12C)[C@@]1(C)CC[C@@H](O)C(C)(C)[C@@H]1CC3
pIC50: 5.96
//
molecule: CC(C)=CCC[C@H](C(=O)O)[C@H]1CC[C@]2(C)C3=C(CC[C@@]12C)[C@@]1(C)CCC(=O)C(C)(C)[C@H]1CC3 [BETA-ELEMONIC ACID]
pIC50: 6.05

Turning now to a further molecule:
pIC50 lookup needed for CC(C)=CCC[C@H](C(=O)O)[C@@H]1CC[C@]2(C)C3=C(CC[C@@]12C)[C@@]1(C)CC[C@H](O)C(C)(C)[C@@H]1CC3 , thanks. 5.92

Attribution: ChEMBL document CHEMBL3286230
